Protocol text: protein stability index of a GFP-peptide fusion (GPS, HEK-293T) (PSI 1-6); higher = more stable;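 note: 24-mer peptide tiles fused after GFP, lentivirally expressed, FACS-sorted into six equal bins by GFP/DsRed ratio, decoded by Illumina sequencing, PSI is the read-weighted mean bin number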
Cond: treatment: MLN4924 1 uM, 8 h; c terminus: a fixed tail appended
protein stability index: recorded values
Readout name: protein stability index

FQLPERGSRLCLYEDGTELTEDYF [DFFB]
3.7
RNTSWGVVQEPPGRASRFLQSISW [TLE6]
2.46
NDFSYLHTNCFELSIYVGCDKYPH [CPXM2]
2.25
YDLEYWAFHDGQRSRLRPRDDLDR [TRIM14]
3.69
PNNSCYSAGIAKLEEGDELQLAIP [TNFSF13B]
4.59
ALRERWLLEGTPSSASEGDEDLRR [PALM]
5.14
NSGLKPKDNEFTSKPWHWPINYQG [POMT2]
3.24
GGNVECIKLLQSSGADFHKKDKCG [ANKRD44]
4.38
FAVFPSLNEEQTLQEVPTGLDSIS [ETS2]
3.79
RANPCLSSSNEHAAPAAKTRKQAA [ELOA2]
5.18
SAETSGGLLICLPREQAARFCSEI [SEPHS2]
2.18
QLEKPKPVKPVTFSTGIKMGQHIS [MNAT1]
3.44
HFKKQTIYRFLKLHPRGKNNFSPL [FEM1C]
1.96
YNLTILDCLQGIRKGLQHGFFDFE [CDC14A]
2.71
AVLGLLLVLAAVVAWCYYSVSLRK [MYORG]
2.77
KPKIEDVGSDEEDDSGKDKKKKTK [HSP90AB1]
5.56
NIWASQSVLSACDNLSDLVMVRWN [IQUB]
2.27
GVGKAIEEELQEIASEPTNKHLFY [MATN2]
4.46
RENEELSARYLSQCQEAEQARAEL [FBF1]
5.34
NTEDWRPRPGTGQSRSFRILAHLT [PDLIM7]
2.9
IDSYDPSTGEVYCRVPNSGKDEIE [ALDH8A1]
4.92
MWYPEIKHFCPRTPVILVGCQLDL [RHOBTB1]
2.6
NRVSWWGSTLAMLQRLKEQQFVIA [ZBED1]
2.48
GYVANSSNCISGVCSVRGGEGRSR [KRT71]
3.73
LAYYEVCSWKGATKQRIQDQKVPY [CHIT1]
2.8
EKMALDPYTELRKQPLRKYVTPSD [EFHC1]
3.95
AIPEAIGFVMVPFEYRGEQHKTCM [EDNRA]
2.31
